# Tgt: T1, human PCSK9 (proprotein convertase subtilisin kexin type 9) (human, UniProt Q8NBP7 31-692)
# T1 construct: Directly immobilized (SPR ProteOn), biotinylated (BLI), or in solution, depending on the assay; also called hPCSK9
# Protocol Details: FRET, competitor EGFA peptide
Below, each entry is listed alongside its reported EC50.
Enter your answer as a number in nM; do not include the unit.

Solved entries (count: 3):
>>> measured_number("2382D05 (designed binder, Anti-PCSK9 Adnectin, His6-tagged; Same entry as 2451B06) MGVSDVPRDLEVVAATPTSLLISWDAPADGGYGYYRITYGETGGNSPVQEFTVPVSKGTATISGLKPGVDYTITVYAVEFDFPGAGYYHRPISINYRTEIDKPSQHHHHHH")
2.6
>>> measured_number("2381B04 (designed binder, Anti-PCSK9 Adnectin, His6-tagged) MGVSDVPRDLEVVAATPTSLLISWEPFSRLPGGGEYYRITYGETGGNSPLQQFTVPGSKGTATISGLKPGVDYTITVYAVEYPYEHSGYYHRPISINYRTEIDKPSQHHHHHH")
2.4
>>> measured_number("2381F11 (designed binder, Anti-PCSK9 Adnectin, His6-tagged) MGVSDVPRDLEVVAATPTSLLISWDAPADGGYGYYRITYGETGGNSPVQEFTVPVSKSTATISGLKPGVDYTITVYAVEYTFPGAGYYHRPISINYRTEIDKPSQHHHHHH")
4

[Q] Looking for the measured EC50 of 2381G09 (designed binder, Anti-PCSK9 Adnectin, His6-tagged) MGVSDVPRDLEVVAATPTSLLISWDAPAGDGYGYYRITYGETGGNSPVQEFTVPVSKGTATISGLKPGVDYTITVYAVEFTFPGAGYYHRPISINYRTEIDKPSQHHHHHH , can you help?
[A] 3.1
